In this section, each of the compounds is paired with its reported Decomposition efficiency of glycitin family in defatted soybean.
# System: Crude diglycosidase
# METHOD DESCRIPTION: Examination of temperature in the conversion into isoflavone aglycons by diglycosidase using soybean materials
# Type: biochemical, Penicillium multicolor IAM7153
# Design: concentration or dose not given beside the values
# MEASUREMENT PARAMETERS: 55° C., heat treatment of enzyme yes, reaction time 6 h
RECORDED METRIC: Decomposition efficiency of glycitin family in defatted soybean (%)

INSERT INTO assay_data (input_smiles, recorded_result) VALUES
  ('COc1cc2c(=O)c(-c3ccc(O)cc3)coc2cc1O', 54.5),
  ('COc1cc2c(=O)c(-c3ccc(O)cc3)coc2cc1O[C@@H]1O[C@H](COC(=O)CC(=O)O)[C@@H](O)[C@H](O)[C@H]1O', 45.5);

----------
# System: Crude diglycosidase
# METHOD DESCRIPTION: Examination of pH in the conversion into isoflavone aglycons by diglycosidase using soybean materials
# Assay type: biochemical, Penicillium multicolor IAM7153
# MEASUREMENT PARAMETERS: pH6.5, heat treatment of enzyme no, reaction time 1 h, 55° C.
RECORDED METRIC: Decomposition efficiency of glycitin family in roasted soy flour

INSERT INTO assay_data (input_smiles, recorded_result) VALUES
  ('COc1cc2c(=O)c(-c3ccc(O)cc3)coc2cc1O[C@@H]1O[C@H](COC(C)=O)[C@@H](O)[C@H](O)[C@H]1O', 35.0),
  ('COc1cc2c(=O)c(-c3ccc(O)cc3)coc2cc1O', 65.0);

----------
# System: Crude diglycosidase
# METHOD DESCRIPTION: Examination of pH in the conversion into isoflavone aglycons by diglycosidase using soybean materials
# Format: biochemical, Penicillium multicolor IAM7153
# MEASUREMENT PARAMETERS: pH2.7; heat treatment of enzyme: no; reaction time 6 h
RECORDED METRIC: Decomposition efficiency of glycitin family in concentrated soybean protein

INSERT INTO assay_data (compound, measurement_target, recorded_result) VALUES
  ('COc1cc2c(=O)c(-c3ccc(O)cc3)coc2cc1O[C@@H]1O[C@H](COC(C)=O)[C@@H](O)[C@H](O)[C@H]1O [acetylglycitin, 6″-O-acetylglycitin]', 'Crude diglycosidase', '36.6%'),
  ('COc1cc2c(=O)c(-c3ccc(O)cc3)coc2cc1O[C@@H]1O[C@H](COC(=O)CC(=O)O)[C@@H](O)[C@H](O)[C@H]1O [malonylglycitin, 6″-O-malonylglycitin]', 'Crude diglycosidase', '0.5%'),
  ('COc1cc2c(=O)c(-c3ccc(O)cc3)coc2cc1O [glycitein]', 'Crude diglycosidase', '29.2%'),
  ('COc1cc2c(=O)c(-c3ccc(O)cc3)coc2cc1O[C@@H]1O[C@H](CO)[C@@H](O)[C@H](O)[C@H]1O [glycitin]', 'Crude diglycosidase', '33.7%');

----------
# Tested on: Crude diglycosidase
# METHOD DESCRIPTION: Examination of substrate concentration in the conversion into isoflavone aglycons by diglycosidase using soybean materials;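 also: percent of the isoflavone family total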
# Assay type: biochemical, Penicillium multicolor IAM7153
# MEASUREMENT PARAMETERS: defatted soybean, substrate concentration 10%, heat treatment of enzyme no, reaction time 0 h
RECORDED METRIC: Decomposition efficiency: ratio of each glycoside/aglycon within its isoflavone family (%)

INSERT INTO assay_data (molecule, recorded_result) VALUES
  ('COc1cc2c(=O)c(-c3ccc(O)cc3)coc2cc1O [glycitein]', 47.0),
  ('COc1cc2c(=O)c(-c3ccc(O)cc3)coc2cc1O[C@@H]1O[C@H](COC(=O)CC(=O)O)[C@@H](O)[C@H](O)[C@H]1O [malonylglycitin, 6″-O-malonylglycitin]', 53.0);

These entries and their values trace back to patent US7118895B2.
